# RUN_DESCRIPTION: CCTE_Deisenroth_AIME_384WELL_CTox_Active: Cytotoxicity Assessment (CTOX) in CCTE's 384-well Estrogen Receptor Transactivation Assay with AIME metabolic competence (metabolism positive), Deisenroth Lab (AID 2284037);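 also: chemicals first conditioned 2 h by alginate-bound induced rat liver S9 before cells; activity means signal loss indicating cell death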
Inconclusive results are not listed. Activity calls are given as the source filed them. The calls were made as follows: active = hit-call score of the fitted dose curve at least 0.9, where 1 is the maximum; inconclusive = response in the unintended direction; inactive = score below 0.9.
Assign a class; possible classes are y for active, n for inactive

**Query** Hey, what did the test say about CCOC(=O)c1ccc(C2CCC(NC[C@H](O)COc3ccc(O)c(NS(C)(=O)=O)c3)CC2)cc1 (some centres undefined) ?
**Result** y

**Query** Hey, what did the test say about CNCc1ccc(NC(=O)c2c[nH]c3c2C(=O)CCC3)cc1 ?
**Result** n

**Query** Hey, what did the test say about Oc1ccc2c(c1)-c1ccccc1C2 ?
**Result** n

**Query** Hey, what did the test say about On1ccccc1=S ?
**Result** n

**Query** Hey, what did the test say about Cn1c(=O)cc(Oc2ccc(F)cc2F)c2cnc(NCC(C)(C)O)nc21 ?
**Result** n

More entries:
**Query** Hey, what did the test say about Cn1c(=O)c2c(ncn2C)n(C)c1=O ?
**Result** n

**Query** Hey, what did the test say about CC(C)c1cccc(C(C)C)c1N1C(=O)c2ccc(O)cc2C1=O ?
**Result** n

**Query** Hey, what did the test say about CC1=CC(=O)CC(C)(C)C1 ?
**Result** n

**Query** Hey, what did the test say about COc1cccc(-c2ccc(/C=C\CN3CCCCCC3)cc2Cl)c1 ?
**Result** n

* * *

# Read-out: Apoptosis regulator Bcl-2 (Homo sapiens) (UniProt P10415)
# Sequence (P10415 whole entry, looked up): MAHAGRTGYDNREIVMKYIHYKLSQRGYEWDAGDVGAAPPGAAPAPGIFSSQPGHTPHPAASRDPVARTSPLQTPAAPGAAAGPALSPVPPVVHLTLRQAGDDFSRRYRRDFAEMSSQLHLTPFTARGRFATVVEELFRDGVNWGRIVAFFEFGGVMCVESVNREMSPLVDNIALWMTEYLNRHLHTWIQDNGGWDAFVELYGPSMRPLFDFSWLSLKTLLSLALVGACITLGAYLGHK
# RUN_DESCRIPTION: LTEA_HepaRG_BCL2: Life Technologies and Expression Analysis (LTEA) Assay for Bcl-2 gene using HepaRG (AID 2283475);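 also: BCL2 transcript by TaqMan qRT-PCR normalised to ACTB GAPDH and POLR2A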
# CONDITION_PARAMETERS: mRNA level, 48 h; actives raise or lower the signal
Active and inactive are the calls of the source. The calls were made as follows: active = hit-call score of the fitted dose curve at least 0.9, where 1 is the maximum; inactive = score below 0.9.
Assign a class; possible classes are True for active, False for inactive

**Query** Hey, what did the test say about CC(C)=CCCC(C)=CC=O ?
**Result** False

More entries:
**Query** Hey, what did the test say about O=C(NS(=O)(=O)/C=C/c1ccccc1)c1ccc(F)cc1Cl ?
**Result** False

**Query** Hey, what did the test say about CC(=O)OC[C@H]1O[C@@](COC(C)=O)(O[C@H]2O[C@H](COC(C)=O)[C@@H](OC(C)=O)[C@H](OC(C)=O)[C@H]2OC(C)=O)[C@@H](OC(C)=O)[C@@H]1OC(C)=O ?
**Result** False

**Query** Hey, what did the test say about CCCCCCCCCCCCc1ccccc1 ?
**Result** False

**Query** Hey, what did the test say about CCOc1cccc(-n2cc(C(=O)N3CCN(c4cc(C(=O)O)c5ccccc5c4)CC3)nc2-c2ccc(C)cc2)c1 ?
**Result** True

**Query** Hey, what did the test say about CCCCCCc1ccc(O)cc1O ?
**Result** False

**Query** Hey, what did the test say about COC(=O)CC(=O)OC ?
**Result** False

* * *

# Read-out: Intercellular Adhesion Molecule 1 (ICAM1), ICAM1 (gene 3383)
# RUN_DESCRIPTION: BSK_KF3CT_ICAM1: BioMAP Diversity Plus: KF3CT Assay for Intercellular Adhesion Molecule 1 (ICAM1) Biomarker Activity (AID 2283067)
# CONDITION_PARAMETERS: primary human keratinocytes with fibroblasts; actives raise or lower the signal
Calls of active or inactive are those of the source. Rule for the calls: active = hit-call score of the fitted dose curve at least 0.9, where 1 is the maximum; inactive = score below 0.9.
Assign a class; possible classes are active, inactive

Consider the following illustrative entries.
**Query** Hey, what did the test say about C=CCCCCCCCCC(=O)O ?
**Result** inactive

**Query** Hey, what did the test say about COCCOCCOCCOC ?
**Result** inactive

**Query** Hey, what did the test say about C[C@](N)(Cc1ccc(O)c(O)c1)C(=O)O ?
**Result** inactive

More entries:
**Query** Hey, what did the test say about CCCCCCCCO ?
**Result** inactive

**Query** Hey, what did the test say about O=C(O)CCN(C1(C(=O)NO)CCCC1)S(=O)(=O)c1ccc(Oc2ccc(F)cc2)cc1 ?
**Result** inactive

**Query** Hey, what did the test say about On1ccccc1=S ?
**Result** active
